- Experiment summary: Cytotoxic effects, tetrazolium salt (MTT) metabolic assay
- Type: cell-based
- Condition details: read-out: TC50 (the source's name)
Record form. Attribute: CC50. Fill in for each entry.

Request the reported CC50 associated with "CC[C@H]1CC(=O)N1C(=O)N[C@H](CC)c1ccccc1"
> 250 µM

Request the reported CC50 associated with "C[C@@H]1C(=O)N(C(=O)Nc2ccncc2)[C@H]1Cc1ccccc1"
> 250 µM

Request the reported CC50 associated with CCC(NC(=O)N1C(=O)[C@@H](C)[C@@H]1Cc1ccccc1)c1ccncc1 (single isomer, unassigned) [Entry 205]
> 250 µM

Request the reported CC50 associated with "C[C@@H]1C(=O)N(C(=O)NCc2ccccc2)[C@H]1Cc1ccccc1"
> 250 µM

Request the reported CC50 associated with CN(Cc1ccc(C(F)(F)F)cc1)C(=O)N1C(=O)C[C@@H]1Cc1nccs1 [Entry 231]
> 25 µM

Request the reported CC50 associated with "CC[C@@H](NC(=O)N1C(=O)C[C@@H]1[C@@H](C)CC)c1ccccc1"
> 250 µM

Request the reported CC50 associated with "O=C1C[C@H](Cc2ccccc2)N1C(=O)Nc1ccc(F)cc1"
> 250 µM

Request the reported CC50 associated with "CC(C)c1ccc(CN(C)C(=O)N2C(=O)C[C@@H]2Cc2ccccc2)cc1"
200 µM

Request the reported CC50 associated with "CN(Cc1ccc([N+](=O)[O-])cc1)C(=O)N1C(=O)C[C@@H]1Cc1nnn(C)n1"
> 133 µM

Request the reported CC50 associated with "O=C1C[C@H](Cc2ccccc2)N1C(=O)NCc1ccc2c(c1)OCO2"
> 150 µM

Request the reported CC50 associated with "O=C1C[C@H](Cc2ccccc2)N1C(=O)Nc1ccccc1"
> 250 µM

Request the reported CC50 associated with "CN(Cc1ccc(SC(F)(F)F)cc1)C(=O)N1C(=O)C[C@@H]1Cc1ccccc1"
> 250 µM

Request the reported CC50 associated with "COc1ccc(CN(C)C(=O)N2C(=O)C[C@@H]2Cc2ccccc2)cc1"
> 250 µM

Request the reported CC50 associated with "CC[C@@H](NC(=O)N1C(=O)C[C@@H]1C(C)C)c1ccccc1"
> 250 µM

Request the reported CC50 associated with "O=C1C[C@H](Cc2ccccc2)N1C(=O)NCc1ccccc1"
> 250 µM

Request the reported CC50 associated with "CN(Cc1cccc([N+](=O)[O-])c1)C(=O)N1C(=O)C[C@@H]1Cc1ccccc1"
> 250 µM

Request the reported CC50 associated with "O=C1C[C@H](Cc2ccccc2)N1C(=O)NCc1cccnc1"
> 250 µM

Request the reported CC50 associated with CN(Cc1ccc([S+]([O-])C(F)(F)F)cc1)C(=O)N1C(=O)C[C@@H]1Cc1ccccc1 (stereo partly drawn)
> 250 µM

Request the reported CC50 associated with "O=C1C[C@H](Cc2ccc(I)cc2)N1C(=O)NCc1ccncc1"
> 100 µM

Request the reported CC50 associated with "COc1ccc(NC(=O)N2C(=O)C[C@@H]2Cc2ccccc2)cc1"
> 250 µM

Request the reported CC50 associated with "CN(Cc1ccccc1[N+](=O)[O-])C(=O)N1C(=O)C[C@@H]1Cc1ccccc1"
> 250 µM

Request the reported CC50 associated with "O=C1C[C@H](Cc2ccccc2)N1C(=O)Nc1ccncc1"
> 250 µM

Request the reported CC50 associated with "CC(=O)Nc1ccc(CN(C)C(=O)N2C(=O)C[C@@H]2Cc2ccccc2)cc1"
> 250 µM

Request the reported CC50 associated with "CC[C@@H](C)[C@H]1CC(=O)N1C(=O)N[C@H](CC)c1ccccc1"
> 250 µM

Request the reported CC50 associated with "C[C@@H]1C(=O)N(C(=O)N(C)Cc2ccccc2)[C@H]1Cc1ccccc1"
> 250 µM

Request the reported CC50 associated with "COC(=O)c1ccc(CN(C)C(=O)N2C(=O)C[C@@H]2Cc2ccccc2)cc1"
> 250 µM

Request the reported CC50 associated with "O=C1C[C@H](Cc2ccccc2)N1C(=O)NCc1ccncc1"
> 250 µM

Request the reported CC50 associated with "CN(Cc1ccc([N+](=O)[O-])cc1)C(=O)N1C(=O)C[C@@H]1Cc1cccs1"
> 79 µM

Request the reported CC50 associated with "CN(Cc1ccc([N+](=O)[O-])cc1)C(=O)N1C(=O)C[C@@H]1Cc1ccccc1"
> 250 µM

Request the reported CC50 associated with "CC[C@@H](NC(=O)N1C(=O)[C@@H](SC)[C@@H]1Cc1ccccc1)c1ccccc1"
> 250 µM

Request the reported CC50 associated with "CN(Cc1ccc([N+](=O)[O-])cc1)C(=O)N1C(=O)C[C@@H]1Cc1ccco1"
> 261 µM

Request the reported CC50 associated with "CC[C@@H](NC(=O)N1C(=O)C[C@@H]1Cc1nnn(C)n1)c1ccccc1"
> 148 µM

Request the reported CC50 associated with "CN(Cc1ccc(Cl)cc1)C(=O)N1C(=O)C[C@@H]1Cc1ccccc1"
> 250 µM

Request the reported CC50 associated with "CN(Cc1ccc(C(F)(F)F)cc1)C(=O)N1C(=O)C[C@@H]1Cc1ccccc1"
> 250 µM

Request the reported CC50 associated with "CN(Cc1ccc(C(F)(F)F)cc1)C(=O)N1C(=O)C[C@@H]1Cc1cccs1"
> 16 µM

Request the reported CC50 associated with "Cc1ccc(NC(=O)N2C(=O)C[C@@H]2Cc2ccccc2)cc1"
> 250 µM

----------
Record form. Attribute: IC50. Fill in for each entry.
// return numeric value only (unit: µM, not printed)

Observed IC50 on UniProt:P16753 for "CN(Cc1cccc([N+](=O)[O-])c1)C(=O)N1C(=O)C[C@@H]1Cc1ccccc1" , please.
6.9

Observed IC50 on UniProt:P16753 for "CN(Cc1ccc([N+](=O)[O-])cc1)C(=O)N1C(=O)C[C@@H]1Cc1cccs1" , please.
1.3

Observed IC50 on UniProt:P16753 for "CN(Cc1ccc(N)cc1)C(=O)N1C(=O)C[C@@H]1Cc1ccccc1" , please.
13.4

Observed IC50 on UniProt:P16753 for "CC(=O)Nc1ccc(CN(C)C(=O)N2C(=O)C[C@@H]2Cc2ccccc2)cc1" , please.
17

----------
Record form. Attribute: pIC50. Fill in for each entry.
Quick note: pIC50 means taking -log10 of the concentration in moles per liter.

Observed pIC50 on HCMV NO protease (Human cytomegalovirus, UniProt P16753) for CC(c1ccccc1)N(C)C(=O)N1C(=O)CC1Cc1ccccc1 (stereo not drawn) [Entry 120] , please.
Sequence (P16753 1-256): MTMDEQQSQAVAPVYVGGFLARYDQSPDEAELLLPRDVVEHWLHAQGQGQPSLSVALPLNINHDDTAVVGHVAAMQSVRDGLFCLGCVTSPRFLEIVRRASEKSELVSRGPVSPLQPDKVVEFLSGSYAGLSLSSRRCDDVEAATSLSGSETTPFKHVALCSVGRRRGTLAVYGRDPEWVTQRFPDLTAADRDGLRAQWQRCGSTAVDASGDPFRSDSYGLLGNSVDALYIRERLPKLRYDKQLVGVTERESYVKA
4.75

Observed pIC50 on HCMV NO protease (Human cytomegalovirus, UniProt P16753) for CC[C@@H](NC(=O)N1C(=O)C[C@@H]1Cc1nnn(C)n1)c1ccccc1 [Entry 222] , please.
5.30

Observed pIC50 on HCMV NO protease (Human cytomegalovirus, UniProt P16753) for CCC(CC)NC(=O)N1C(=O)C[C@@H]1Cc1ccccc1 [Entry 110] , please.
4.42

Observed pIC50 on HCMV NO protease (Human cytomegalovirus, UniProt P16753) for CCC(NC(=O)N1C(=O)C[C@@H]1Cc1ccccc1)c1ccncc1 (stereo partly drawn) [Entry 108] , please.
4.55

Observed pIC50 on HCMV NO protease (Human cytomegalovirus, UniProt P16753) for C[C@@H]1C(=O)N(C(=O)Nc2ccncc2)[C@H]1Cc1ccccc1 [Entry 204] , please.
6.01

Observed pIC50 on HCMV NO protease (Human cytomegalovirus, UniProt P16753) for Cc1ccc(CN(C)C(=O)N2C(=O)C[C@@H]2Cc2ccccc2)cc1 [Entry 129] , please.
5.05

Observed pIC50 on HCMV NO protease (Human cytomegalovirus, UniProt P16753) for C[C@@H](NC(=O)N1C(=O)C[C@@H]1Cc1ccccc1)c1cccc2ccccc12 [Entry 105] , please.
5.11

Observed pIC50 on HCMV NO protease (Human cytomegalovirus, UniProt P16753) for CC(C)c1ccc(CN(C)C(=O)N2C(=O)C[C@@H]2Cc2ccccc2)cc1 [Entry 134] , please.
5.19

Observed pIC50 on HCMV NO protease (Human cytomegalovirus, UniProt P16753) for CN(Cc1ccc(S(=O)(=O)C(F)(F)F)cc1)C(=O)N1C(=O)C[C@@H]1Cc1ccccc1 [Entry 139] , please.
5.37

----------
- Experiment summary: Cytotoxic effects, tetrazolium salt (MTT) metabolic assay
- Format: cell-based
- Condition details: read-out: TC50 (the source's name)
Record form. Attribute: CC50. Fill in for each entry.

Request the reported CC50 associated with COc1c(C)cc(NC(=O)N2C(=O)C[C@@H]2Cc2ccccc2)cc1C [Entry 106]
> 250 µM

Request the reported CC50 associated with CN(Cc1ccc(C#N)cc1)C(=O)N1C(=O)C[C@@H]1Cc1ccccc1 [Entry 145]
> 250 µM

Request the reported CC50 associated with C[C@@H]1C(=O)N(C(=O)NCc2ccncc2)[C@H]1Cc1ccccc1 [Entry 201]
> 250 µM
